- ASSAYED_TARGET: chicken Estrogen Receptor (ESR1), ESR1 (gene 396099) (UniProt P06212)
- Sequence (P06212 whole entry, looked up): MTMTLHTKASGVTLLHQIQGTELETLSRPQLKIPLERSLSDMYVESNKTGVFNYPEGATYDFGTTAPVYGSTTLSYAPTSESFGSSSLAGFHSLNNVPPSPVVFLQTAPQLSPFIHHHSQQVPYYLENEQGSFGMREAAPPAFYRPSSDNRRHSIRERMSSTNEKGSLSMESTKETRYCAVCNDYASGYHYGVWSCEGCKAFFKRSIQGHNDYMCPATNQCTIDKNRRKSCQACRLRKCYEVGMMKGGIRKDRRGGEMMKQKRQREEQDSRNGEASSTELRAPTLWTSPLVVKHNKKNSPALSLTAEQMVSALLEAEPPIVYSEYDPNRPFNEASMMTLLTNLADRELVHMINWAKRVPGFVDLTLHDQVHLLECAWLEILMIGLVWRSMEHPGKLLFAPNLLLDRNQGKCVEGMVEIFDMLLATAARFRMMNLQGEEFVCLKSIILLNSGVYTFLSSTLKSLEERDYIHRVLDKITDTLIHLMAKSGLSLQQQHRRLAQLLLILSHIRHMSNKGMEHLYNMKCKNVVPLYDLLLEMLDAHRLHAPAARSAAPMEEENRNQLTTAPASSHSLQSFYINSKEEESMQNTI
- ASSAY_REMARKS: ATG_chERa_XSP1: Attagene TRANS-FACTORIAL Multi-Species (XSP1) HepG2 Assay for chicken Estrogen Receptor (ESR1) (AID 2283779)
Records with an inconclusive call do not appear. Calls of active or inactive are those of the source. Rule for the calls: active = hit-call score of the fitted dose curve at least 0.9, where 1 is the maximum; inconclusive = response in the unintended direction; inactive = score below 0.9.
# valid calls are active, inactive; nothing else

Prompt: Status in this test for `Cc1c(COC(=O)[C@@H]2[C@H](/C=C(\Cl)C(F)(F)F)C2(C)C)cccc1-c1ccccc1` ?
Completion: inactive

Prompt: So what was the verdict on `CC(C)NC(=O)N1CC(=O)N(c2cc(Cl)cc(Cl)c2)C1=O` in this test?
Completion: inactive

Prompt: State the result this test recorded for `CSC(=O)c1c(C(F)F)nc(C(F)(F)F)c(C(=O)SC)c1CC(C)C` .
Completion: inactive

Prompt: Returns: the outcome recorded for CC1(C)CCC(=Cc2ccc(Cl)cc2)C1(O)Cn1cncn1 (stereo unspecified) in this assay.
Completion: active

Prompt: Field: outcome | Entry: CC1(C)C(C=C(Cl)Cl)C1C(=O)OC(C#N)c1cccc(Oc2ccccc2)c1 (stereo unspecified)
Completion: inactive

Prompt: What call does the record list for `COP(=S)(OC)Oc1ccc([N+](=O)[O-])c(C)c1` ?
Completion: active

* * *

- ASSAYED_TARGET: Nucleoli Translocation, AR (gene 367)
- ASSAY_REMARKS: UPITT_HCI_U2OS_AR_TIF2_Nucleoli_Agonist: University of Pittsburgh U2OS Androgen Receptor-Transcriptional Intermediary Factor 2 (AR-TIF2) Agonism High Content Imaging Assay for Nucleoli Translocation (AID 2283998)
Results filed as inconclusive are left out. Calls of active or inactive are those of the source. Rule for the calls: active = hit-call score of the fitted dose curve at least 0.9, where 1 is the maximum; inconclusive = response in the unintended direction; inactive = score below 0.9.
// allowed return values: True (active), False (inactive)

Prompt: Lab log entry: `Nc1c(Cl)c(F)nc(OCC(=O)O)c1Cl` — outcome as called in the assay?
Completion: False

Prompt: Answer briefly: the call reported for CCCCC(O)(Cn1cncn1)c1ccc(Cl)cc1Cl (stereo not drawn) in this assay.
Completion: True

Prompt: Dear all, I need the recorded test outcome for CC1(C)CCC(=Cc2ccc(Cl)cc2)C1(O)Cn1cncn1 (stereo not drawn) , thank you.
Completion: True

Prompt: Could you kindly confirm the outcome this assay logged for `CC(C)N1C(=O)N(c2ccccc2)CSC1=NC(C)(C)C` ?
Completion: False

Prompt: Check the results log: what was the call for `CCCCOCN(C(=O)CCl)c1c(CC)cccc1CC` ?
Completion: False

Prompt: Please share the test call associated with `COP(=S)(OC)SCn1nnc2ccccc2c1=O` .
Completion: False

Prompt: I'd appreciate the recorded outcome for COCc1cnc(C2=NC(C)(C(C)C)C(=O)N2)c(C(=O)O)c1 (stereo not drawn) from this test.
Completion: False

Prompt: Query: recorded result category for Cc1cnc(C2=NC(C)(C(C)C)C(=O)N2)c(C(=O)O)c1 (stereo not drawn) in this test
Completion: False

* * *

- Read-out: CYP2E1 (gene 1571)
- ASSAY_REMARKS: LTEA_HepaRG_CYP2E1: Life Technologies and Expression Analysis (LTEA) Assay for CYP2E1 using HepaRG (AID 2283485)
- REPORTED_CONDITIONS: mRNA level, 48 h; actives raise or lower the signal
Activity calls are given as the source filed them. The calls were made as follows: active = hit-call score of the fitted dose curve at least 0.9, where 1 is the maximum; inactive = score below 0.9.
Answer with one of the outcomes active, inactive

Prompt: Which result was noted for this compound in the test: `Cc1cc(C)nc(Nc2ccccc2)n1`
Completion: inactive

Prompt: Which outcome was entered for the compound CC1(C)CCC(=Cc2ccc(Cl)cc2)C1(O)Cn1cncn1 (configuration not stated) in this test?
Completion: active

Prompt: How did this test come out for `COc1cc(OC)nc(NC(=O)NS(=O)(=O)c2ncccc2OCC(F)(F)F)n1` ?
Completion: inactive

Prompt: // return assay outcome for `CCOP(=O)(OCC)Oc1nc(Cl)c(Cl)cc1Cl`
Completion: active

Prompt: Dear all, I need the recorded test outcome for `CC1(C)CON(Cc2ccccc2Cl)C1=O` , thank you.
Completion: active

Prompt: What did the test return for CC(C)(C)C(=O)C(Oc1ccc(Cl)cc1)n1cncn1 (configuration not stated) ?
Completion: active

Prompt: Tell me the recorded outcome of this test for CC(C)=CC1C(C(=O)OCc2coc(Cc3ccccc3)c2)C1(C)C (configuration not stated) .
Completion: active

Prompt: What did the test return for `Clc1nc(Cl)nc(Nc2ccccc2Cl)n1` ?
Completion: active

Prompt: Assay outcome for `N#CN=C1SCCN1Cc1ccc(Cl)nc1` : what was it?
Completion: inactive

Prompt: How was `COP(=O)(OC)O/C(C)=C/C(=O)N(C)C` classified in this test?
Completion: inactive

Prompt: Fill in: this test's call for COCC(C)N(C(=O)CCl)c1c(C)csc1C (configuration not stated) is ___
Completion: active

Prompt: What call does the record list for `CC(C)NC(=O)N1CC(=O)N(c2cc(Cl)cc(Cl)c2)C1=O` ?
Completion: active

* * *

- ASSAY_REMARKS: ATG_MRE_CIS: Attagene CIS-FACTORIAL HepG2 Assay for human Metal Responsive Element (MRE) (AID 2282954)
- REPORTED_CONDITIONS: HepG2 MRE cis-reporter transcription, Attagene multiplex; actives raise or lower the signal
The source made the active and inactive calls. The calls were made as follows: active = hit-call score of the fitted dose curve at least 0.9, where 1 is the maximum; inactive = score below 0.9.
Respond with a class label; see active, inactive

Prompt: Answer briefly: the call reported for CC(C)=CC1C(C(=O)OCc2coc(Cc3ccccc3)c2)C1(C)C (configuration not stated) in this assay.
Completion: active

Prompt: Per the records of this test, what outcome belongs to `COC(=O)NC(=S)Nc1ccccc1NC(=S)NC(=O)OC` ?
Completion: inactive

Prompt: # fetch the recorded call for CCOc1cc(C(C)(C)C)ccc1C1COC(c2c(F)cccc2F)=N1 (configuration not stated) here
Completion: active

Prompt: Outcome? CCCCC(C#N)(Cn1cncn1)c1ccc(Cl)cc1 (configuration not stated)
Completion: inactive

Prompt: Test call for this compound, please: `CCOc1nc(F)cc2nc(S(=O)(=O)Nc3c(Cl)cccc3Cl)nn12`
Completion: inactive

Prompt: Could you please tell me the result logged for CCC(C)n1c(=O)[nH]c(C)c(Br)c1=O (configuration not stated) in this assay?
Completion: inactive

Prompt: Which outcome was entered for the compound `CSC(=O)c1c(C(F)F)nc(C(F)(F)F)c(C(=O)SC)c1CC(C)C` in this test?
Completion: inactive

Prompt: What classification did `CS(=O)(=O)c1ccc(C(=O)C2C(=O)CCCC2=O)c([N+](=O)[O-])c1` end up with in this test?
Completion: inactive

Prompt: Give the logged outcome of this assay for the following compound: `O=P(O)(O)CCCl`
Completion: inactive

Prompt: Hello, I am checking results. What call was entered for `CC(C)NC(=O)N1CC(=O)N(c2cc(Cl)cc(Cl)c2)C1=O` ?
Completion: inactive

Prompt: Record request — test call for `COc1cc(Cl)c(OC)cc1Cl`
Completion: inactive

Prompt: Identify the outcome logged in this assay for the compound shown: O=C1C2CC=CCC2C(=O)N1SC(Cl)(Cl)Cl (configuration not stated)
Completion: inactive

Prompt: Recorded test call requested for `N#Cc1c(Cl)cccc1Cl`
Completion: inactive

Prompt: What classification did `CC(C)Nc1nc(Cl)nc(NC(C)C)n1` end up with in this test?
Completion: inactive

Prompt: Could you kindly confirm the outcome this assay logged for `CC(C)Oc1cccc(NC(=O)c2ccccc2C(F)(F)F)c1` ?
Completion: active

Prompt: Give the logged outcome of this assay for the following compound: `N#Cc1c[nH]cc1-c1cccc2c1OC(F)(F)O2`
Completion: active

Prompt: Which outcome did this test record for the compound COCC(=O)N(c1c(C)cccc1C)C(C)C(=O)OC (configuration not stated) ?
Completion: inactive

Prompt: For CCCCC(O)(Cn1cncn1)c1ccc(Cl)cc1Cl (configuration not stated) , which call appears in the assay record?
Completion: active

Prompt: Which outcome was entered for the compound `N#CN=C1SCCN1Cc1ccc(Cl)nc1` in this test?
Completion: inactive

Prompt: Dear colleague, could you share the recorded outcome for `CNC(=O)Oc1cccc2ccccc12` when you have a moment?
Completion: active

Prompt: How was CCCN(CC)CC1COC2(CCC(C(C)(C)C)CC2)O1 (configuration not stated) classified in this test?
Completion: active

Prompt: Status in this test for `CCCCOCN(C(=O)CCl)c1c(CC)cccc1CC` ?
Completion: inactive

Prompt: Hi team, can someone confirm the assay call for `CN=C=S` ?
Completion: active

Prompt: Tell me the assay call for `O=C(O)c1c(Cl)ccc2cc(Cl)cnc12` please.
Completion: inactive

Prompt: How did this test come out for `COP(=S)(OC)SCn1nnc2ccccc2c1=O` ?
Completion: active

Prompt: How did this test come out for `Cc1cc(C)nc(Nc2ccccc2)n1` ?
Completion: inactive

Prompt: Status in this test for `CN/C(=N\[N+](=O)[O-])NCc1cnc(Cl)s1` ?
Completion: inactive

* * *

- Read-out: Signal transducer and activator of transcription 3 (Homo sapiens) (UniProt P40763)
- Sequence (P40763 whole entry, looked up): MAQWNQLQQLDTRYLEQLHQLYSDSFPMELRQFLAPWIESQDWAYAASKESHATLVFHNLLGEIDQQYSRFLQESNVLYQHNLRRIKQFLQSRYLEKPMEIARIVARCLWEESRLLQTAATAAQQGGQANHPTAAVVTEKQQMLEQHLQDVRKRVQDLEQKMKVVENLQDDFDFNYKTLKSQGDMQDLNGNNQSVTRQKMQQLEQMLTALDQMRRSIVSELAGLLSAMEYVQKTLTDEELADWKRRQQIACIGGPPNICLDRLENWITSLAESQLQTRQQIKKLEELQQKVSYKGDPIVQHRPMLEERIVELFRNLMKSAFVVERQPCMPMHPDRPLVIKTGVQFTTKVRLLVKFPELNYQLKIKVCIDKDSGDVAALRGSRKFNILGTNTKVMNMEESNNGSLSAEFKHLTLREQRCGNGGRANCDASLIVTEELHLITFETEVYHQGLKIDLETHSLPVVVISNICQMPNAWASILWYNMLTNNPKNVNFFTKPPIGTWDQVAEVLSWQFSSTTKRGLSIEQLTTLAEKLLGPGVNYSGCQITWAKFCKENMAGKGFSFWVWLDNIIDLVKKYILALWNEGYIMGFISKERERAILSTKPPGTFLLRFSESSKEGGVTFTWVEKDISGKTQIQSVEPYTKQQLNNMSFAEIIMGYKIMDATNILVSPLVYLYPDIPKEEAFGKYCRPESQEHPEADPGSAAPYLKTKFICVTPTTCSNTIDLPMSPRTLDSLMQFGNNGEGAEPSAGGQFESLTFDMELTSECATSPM
- ASSAY_REMARKS: LTEA_HepaRG_STAT3: Life Technologies and Expression Analysis (LTEA) Assay for Signal transducer and activator of transcription (STAT3) using HepaRG (AID 2283529)
- REPORTED_CONDITIONS: mRNA level, 48 h; actives raise or lower the signal
Active and inactive are the calls of the source. The calls were made as follows: active = hit-call score of the fitted dose curve at least 0.9, where 1 is the maximum; inactive = score below 0.9.
Your reply should match one of these outcome classes. active, inactive

Prompt: For `COC(=O)NC(=S)Nc1ccccc1NC(=S)NC(=O)OC` , which call appears in the assay record?
Completion: inactive

Prompt: State the result this test recorded for `COC(=O)c1c(C(F)F)nc(C(F)(F)F)c(C2=NCCS2)c1CC(C)C` .
Completion: inactive

Prompt: Could you please tell me the result logged for `Clc1cccc(C(Cl)(Cl)Cl)n1` in this assay?
Completion: inactive

Prompt: Hello, I am checking results. What call was entered for CCOc1cc(C(C)(C)C)ccc1C1COC(c2c(F)cccc2F)=N1 (centres undefined) ?
Completion: inactive

Prompt: For `CN/C(=N\[N+](=O)[O-])NCc1cnc(Cl)s1` , which call appears in the assay record?
Completion: inactive

Prompt: Could you kindly confirm the outcome this assay logged for `Nc1c(Cl)c(Cl)nc(C(=O)O)c1Cl` ?
Completion: inactive

Prompt: Hi, sorry to bother you, what did the test record for `CC(C)Oc1cccc(NC(=O)c2ccccc2C(F)(F)F)c1` ?
Completion: inactive

Prompt: I'd appreciate the recorded outcome for `Nc1cnn(-c2ccccc2)c(=O)c1Cl` from this test.
Completion: inactive

Prompt: Tell me the assay call for `CO/N=C(/C1=NOCCO1)c1ccccc1Oc1ncnc(Oc2ccccc2Cl)c1F` please.
Completion: active

Prompt: So what was the verdict on COCc1cnc(C2=NC(C)(C(C)C)C(=O)N2)c(C(=O)O)c1 (centres undefined) in this test?
Completion: inactive

Prompt: Per the records of this test, what outcome belongs to CC(C)=CC1C(C(=O)OCc2coc(Cc3ccccc3)c2)C1(C)C (centres undefined) ?
Completion: inactive

Prompt: Which outcome was assigned to CC(C)C1(C)N=C(c2ncccc2C(=O)O)NC1=O (centres undefined) in this test?
Completion: inactive

Prompt: Could you please tell me the result logged for `Clc1nc(Cl)nc(Nc2ccccc2Cl)n1` in this assay?
Completion: inactive

Prompt: Identify the outcome logged in this assay for the compound shown: `CNC(=O)Oc1cccc2ccccc12`
Completion: inactive

Prompt: So what was the verdict on `CCNC(=O)NC(=O)C(C#N)=NOC` in this test?
Completion: inactive

Prompt: Tell me the recorded outcome of this test for `CNC(=O)N(C)c1nnc(C(C)(C)C)s1` .
Completion: inactive

Prompt: Recorded call for `O=c1n(Cl)c(=O)n(Cl)c(=O)n1Cl` ?
Completion: inactive

Prompt: GET /call?item= `COC(=O)NS(=O)(=O)c1ccc(N)cc1` returns the recorded outcome of this test.
Completion: inactive

Prompt: Called result for `C=C(C)CN(CC)c1c([N+](=O)[O-])cc(C(F)(F)F)cc1[N+](=O)[O-]`
Completion: inactive

Prompt: Recorded call for `C=CCOC(=O)C(C)(C)OC(=O)c1cc(-n2c(=O)cc(C(F)(F)F)n(C)c2=O)ccc1Cl` ?
Completion: inactive

Prompt: Tell me the recorded outcome of this test for `CCN(CC)c1nc(C)cc(OP(=S)(OC)OC)n1` .
Completion: inactive

Prompt: What outcome does the record of this test show for `CCOP(=O)(OCC)Oc1nc(Cl)c(Cl)cc1Cl` ?
Completion: inactive

Prompt: Hi, do you know how CCN(CC)C(=O)C(C)Oc1cccc2ccccc12 (centres undefined) came out in this test?
Completion: inactive

Prompt: Outcome logged for `CC1(C)CON(Cc2ccccc2Cl)C1=O` in this assay:
Completion: inactive

Prompt: Which outcome was assigned to `CC(C)N1C(=O)c2ccccc2NS1(=O)=O` in this test?
Completion: inactive

Prompt: Kindly provide the recorded test outcome for the following compound: `COc1cc(OC)nc(NC(=O)NS(=O)(=O)c2ncccc2OCC(F)(F)F)n1`
Completion: inactive

Prompt: For `COP(=O)(OC)O/C(C)=C/C(=O)N(C)C` , which call appears in the assay record?
Completion: inactive

Prompt: Record lookup: outcome of this test for COCC(C)N(C(=O)CCl)c1c(C)csc1C (centres undefined) ?
Completion: inactive

Prompt: Assay result, entry CCC(C)n1c(=O)[nH]c(C)c(Br)c1=O (centres undefined) — outcome?
Completion: active

Prompt: Look up the recorded call for `COc1cc(Cl)c(OC)cc1Cl` in this test.
Completion: inactive

Prompt: // outcome(item) with item = `O=P(O)(O)CCCl`
Completion: inactive

Prompt: Just curious, what result did CCOC(=O)C(C)OC(=O)c1cc(Oc2ccc(C(F)(F)F)cc2Cl)ccc1[N+](=O)[O-] (centres undefined) get here?
Completion: inactive

Prompt: Check the results log: what was the call for `N#Cc1c[nH]cc1-c1cccc2c1OC(F)(F)O2` ?
Completion: inactive

Prompt: Which result was noted for this compound in the test: `COP(=S)(OC)SCn1nnc2ccccc2c1=O`
Completion: inactive

Prompt: Per the records of this test, what outcome belongs to CCCCC(C#N)(Cn1cncn1)c1ccc(Cl)cc1 (centres undefined) ?
Completion: inactive

Prompt: How did this test come out for CCNP(=S)(OC)O/C(C)=C/C(=O)OC(C)C (centres undefined) ?
Completion: inactive

Prompt: Per the records of this test, what outcome belongs to CC1(C)CCC(=Cc2ccc(Cl)cc2)C1(O)Cn1cncn1 (centres undefined) ?
Completion: inactive

Prompt: Tell me the assay call for `Cc1c(COC(=O)[C@@H]2[C@H](/C=C(\Cl)C(F)(F)F)C2(C)C)cccc1-c1ccccc1` please.
Completion: inactive

Prompt: # lookup: test call for `O=C(O)c1c(Cl)ccc2cc(Cl)cnc12`
Completion: inactive
